Target: PRKD1 (human) (UniProt Q15139)
Sequence (Q15139 whole entry, looked up): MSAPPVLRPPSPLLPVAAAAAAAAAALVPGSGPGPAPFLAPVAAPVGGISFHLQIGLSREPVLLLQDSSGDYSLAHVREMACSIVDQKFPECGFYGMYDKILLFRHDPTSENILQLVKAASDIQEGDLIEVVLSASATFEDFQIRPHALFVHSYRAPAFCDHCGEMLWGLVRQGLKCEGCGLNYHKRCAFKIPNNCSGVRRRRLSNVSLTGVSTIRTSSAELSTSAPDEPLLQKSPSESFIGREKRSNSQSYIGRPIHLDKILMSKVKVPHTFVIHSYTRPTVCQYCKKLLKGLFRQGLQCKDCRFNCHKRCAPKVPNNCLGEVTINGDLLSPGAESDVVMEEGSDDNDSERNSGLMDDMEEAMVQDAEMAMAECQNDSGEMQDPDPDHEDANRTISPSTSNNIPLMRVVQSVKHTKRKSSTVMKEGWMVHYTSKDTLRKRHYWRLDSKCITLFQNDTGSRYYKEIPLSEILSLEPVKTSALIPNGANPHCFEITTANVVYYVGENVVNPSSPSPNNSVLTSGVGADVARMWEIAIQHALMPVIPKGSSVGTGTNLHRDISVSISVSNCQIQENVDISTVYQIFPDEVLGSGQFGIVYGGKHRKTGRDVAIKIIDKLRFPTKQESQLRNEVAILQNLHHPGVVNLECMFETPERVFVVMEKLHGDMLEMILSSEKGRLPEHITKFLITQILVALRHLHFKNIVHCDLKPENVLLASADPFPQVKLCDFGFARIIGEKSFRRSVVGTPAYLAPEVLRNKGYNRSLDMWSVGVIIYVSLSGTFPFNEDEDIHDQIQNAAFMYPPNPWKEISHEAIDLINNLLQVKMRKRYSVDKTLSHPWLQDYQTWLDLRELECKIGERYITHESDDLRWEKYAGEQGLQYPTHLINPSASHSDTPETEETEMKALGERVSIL
Assay: radiometric filter-binding kinase assay, Kinase HotSpot
Settings: compound 0.5 µM; ATP 10 µM
Measured Parameter: residual activity

> print(dat)
                        structure.as.smiles                target.or.system  measured.parameter  experimental.value
1  O=C(Nc1cccc(Nc2nccc(Nc3cccc(C(F)(F)F)c3)n2)c1)C1CC1  PRKD1 (human) (UniProt Q15139)   residual activity               94.1%
2  CCN(CC)CCNC(=O)c1c(C)[nH]c(/C=C2\C(=O)Nc3ccc(Cl)cc32)c1C  PRKD1 (human) (UniProt Q15139)   residual activity               11.3%
3   Nc1ccc2ncnc(NCCc3ccc(Oc4ccccc4)cc3)c2c1  PRKD1 (human) (UniProt Q15139)   residual activity               99.3%
4  Oc1cccc(-c2nc(N3CCOCC3)c3oc4ncccc4c3n2)c1  PRKD1 (human) (UniProt Q15139)   residual activity               98.3%
5  O=C1NC(=O)C(c2cn(CCCn3ccnc3)c3ccccc23)=C1Nc1ccccc1  PRKD1 (human) (UniProt Q15139)   residual activity               94.4%
6  Nc1ncnc2c1c(-c1ccc(Oc3ccccc3)cc1)cn2C1CCCC1  PRKD1 (human) (UniProt Q15139)   residual activity               96.2%

Source of measurements: the kinase profiling compilation of Christmann-Franck et al. (2016)
